Measured values drawn from PubChem BioAssay AID504466 for this set.

Test: qHTS screen for small molecules that induce genotoxicity in human embryonic kidney (HEK293T) cells expressing luciferase-tagged ELG1; also: nearly all actives have a fitted effect of over 60% in size; also: potency is read from the fitted curve at half-maximal effect
Conditions: HEK293T ELG1-luciferase reporter, luminescence, 16 h; series mostly up to 46 µM
From the text: NIH Molecular Libraries Probe Production Network [MLPCN] NIH Chemical Genomics Center [NCGC] MLPCN Grant: 1 R03 MH092164-01 Assay Provider: Kyungjae Myung, NHGRI, NIH Keywords: MLPCN, qHTS, NCGC, genotoxicity, cancer Assay Overview: Cancer cells divide rapidly compared to normal cells in the body. During cell division, cancer cells need to duplicate their genome by DNA replication. […] With this in mind, we developed a quantitative high-throughput ELG1-luciferase reporter gene assay. […]
Among all 330,000 compounds or so, about 4,200 (1.3%) were called active. Inconclusive results (about 6%) are left out. The sample holds actives, similar compounds and a random draw of the others, so the mix is not that of the screen.
REPORTED_PROPERTY: Potency

As a guide, the following entries are already answered.
COMPOUND: O=C(Cc1ccccc1)NNC(=O)C1CCN(c2ncccn2)CC1
Potency: inactive

COMPOUND: CCc1ccc(NC(=O)N2CCN(c3ccccc3)CC2)cc1
Potency: inactive

COMPOUND: Cc1cc(NC(=O)COC(=O)/C=C/c2ccc(C)o2)no1
Potency: inactive

COMPOUND: COc1ccc(S(=O)(=O)N2CCOCC2)cc1NC(=O)c1ccc(OCC(C)C)c(OC)c1
Potency: inactive

COMPOUND: O=C(Nc1ccccc1)Nc1ccc(C(F)(F)F)cn1
Potency: inactive

Inquiry: # input compound: `O=C(Nc1cc(C(F)(F)F)ccc1Cl)c1cc(C2CC2)on1` ; wanted: its Potency
Reply text: inactive

Inquiry: What do you get for OC(c1nnc(-c2ccccc2)o1)c1cccs1 (configuration not stated) ?
Reply text: inactive

Inquiry: Then what about the compound `O=C(c1ccc(F)cc1)n1c(=S)nc2ccccn21` ?
Reply text: 0.651 µM (active)

Inquiry: And then `O=C1/C(=C\Nc2ccccc2)CCN1c1ncccn1` , what is it?
Reply text: 11.6 µM (active)

Inquiry: Let us now turn to `Cc1ccc2nc(-c3ccc(NC(=O)CN(C)S(=O)(=O)c4ccccc4)cc3)sc2c1`
Reply text: 5.8 µM (active)

Inquiry: Quick one: `Oc1ccc(/C=N/Nc2ccc(C(F)(F)F)cn2)cc1O`
Reply text: 20.6 µM (active)

Inquiry: Follow-up entry: `Cc1nn(Cc2ccc(Cl)c(Cl)c2)c(C)c1NC(=O)c1cc(C2CC2)on1`
Reply text: inactive

Inquiry: Please answer likewise for Cc1ccc(OCCCC(=O)NC(C)c2ccccc2)c(C)c1 (configuration not stated)
Reply text: inactive

Inquiry: // query: `COc1ccccc1Oc1ccc(N/C=C2/CCCC2=O)cc1`
Reply text: inactive

Inquiry: Try the compound `Nc1ccc(-c2nnc(-c3ccccc3)o2)cc1`
Reply text: 16.4 µM (active)

Inquiry: What about `O=C(COC(=O)COc1cc(Cl)c(Cl)cc1Cl)NC1CC1` ?
Reply text: inactive

Inquiry: Same again, this time with CC(CNC(=O)Cn1cnc2c(OCc3ccccc3)ncnc21)c1ccccc1 (configuration not stated)
Reply text: inactive

Inquiry: And `CC[C@]1(C(=O)OC)[C@H]2C(=O)N(Cc3ccccc3)C(=O)[C@H]2[C@H]2CN=C(SCc3ccccc3)N21` ?
Reply text: inactive

Inquiry: # iterate: `COc1cc(NC(=O)CN(C)S(=O)(=O)c2ccc3nc(C)sc3c2)cc(OC)c1`
Reply text: inactive

Inquiry: Also Cc1nc2ccc(S(=O)(=O)N(C)CC(=O)NC(C)c3ccccc3)cc2s1 (configuration not stated) ?
Reply text: inactive

Inquiry: Ok, now `COc1ccc(S(=O)(=O)N(C)C[C@@H]2Oc3ccc(NS(=O)(=O)c4cn(C)cn4)cc3C(=O)N([C@@H](C)CO)C[C@@H]2C)cc1`
Reply text: inactive

Inquiry: Here is the next compound: CCC1CCCCN1C(=S)NC(=O)c1ccco1 (configuration not stated)
Reply text: inactive
